Experiment: Binding affinity to Fe3+ assessed as formation of Fe3+-compound complex in presence of FeCl3 by HRESIMS method
The source made the active and inactive calls. No cut-off for these calls is given here.
Your response should consist of one outcome taken from active, inactive

Worked set:
>>> class("C/C(=C\\C(=O)N(O)CCC[C@@H]1NC(=O)[C@H](CCCN(O)C(=O)/C=C(\\C)CCO[C@@H]2O[C@H](CO)[C@@H](O)[C@H](O)[C@@H]2O)NC1=O)CCO")
"active"
>>> class("C/C(=C\\C(=O)NCCC[C@@H]1NC(=O)[C@H](CCCNC(=O)/C=C(\\C)CCO)NC1=O)CCO")
"inactive"
>>> class("C/C(=C\\C(=O)N(O)CCC[C@@H]1NC(=O)[C@H](CCCN(O)C(=O)C[C@](C)(O)CCO)NC1=O)CCO")
"active"
>>> class("C/C(=C\\C(=O)N(O)CCC[C@@H]1NC(=O)[C@H](CCCN(O)C(=O)/C=C(\\C)CCO[C@@H]2O[C@H](CO)[C@@H](O)[C@H](O)[C@@H]2O)NC1=O)CCOC(=O)[C@H](CCCN(O)C(=O)/C=C(\\C)CCO[C@@H]1O[C@H](CO)[C@@H](O)[C@H](O)[C@@H]1O)[N+](C)(C)[O-]")
"active"
>>> class("CO[C@H]1[C@H](O)[C@H](O)[C@H](OCC[C@@](C)(O)CC(=O)N(O)CCC[C@@H]2NC(=O)[C@H](CCCN(O)C(=O)/C=C(\\C)CCO)NC2=O)O[C@@H]1CO")
"active"

Please let me know the test result on file for CO[C@H]1[C@H](O)[C@H](O)[C@H](OCC/C(C)=C/C(=O)N(O)CCC[C@@H]2NC(=O)[C@H](CCCN(O)C(=O)/C=C(\C)CCO)NC2=O)O[C@@H]1CO .
active

* * *

Experiment: Binding affinity to Fe3+ assessed as formation of Fe3+-compound complex in presence of FeCl3 by HRESIMS method
The source made the active and inactive calls. No cut-off for these calls is given here.
RECORDED METRIC: Activity

>>> observed("C[C@@](O)(CCO)CC(=O)N(O)CCC[C@@H]1NC(=O)[C@H](CCCN(O)C(=O)C[C@](C)(O)CCO)NC1=O")
"Active"
>>> observed("C/C(=C\\C(=O)N(O)CCC[C@@H]1NC(=O)[C@H](CCCN(O)C(=O)/C=C(\\C)CCO)NC1=O)CCO")
"Active"
>>> observed("C/C(=C\\C(=O)N(O)CCC[C@@H]1NC(=O)[C@H](CCCN(O)C(=O)C[C@](C)(O)CCO[C@@H]2O[C@H](CO)[C@@H](O)[C@H](O)[C@@H]2O)NC1=O)CCO")
"Active"

* * *

Experiment: Binding affinity to Fe3+ assessed as formation of Fe3+-compound complex at 100 ug/disk by CAS agar disk diffusion method
The source made the active and inactive calls. No cut-off for these calls is given here.
In this exercise, the only acceptable responses are label 1 = active, label 0 = inactive

Would you please look over these solved cases?
>>> class("C/C(=C\\C(=O)N(O)CCC[C@@H]1NC(=O)[C@H](CCCN(O)C(=O)C[C@](C)(O)CCO[C@@H]2O[C@H](CO)[C@@H](O)[C@H](O)[C@@H]2O)NC1=O)CCO")
"label 1"
>>> class("C/C(=C\\C(=O)N(O)CCC[C@@H]1NC(=O)[C@H](CCC[N+](=O)[O-])NC1=O)CCO")
"label 0"
>>> class("C/C(=C\\C(=O)N(O)CCC[C@@H]1NC(=O)[C@H](CCCN(O)C(=O)/C=C(\\C)CCO[C@@H]2O[C@H](CO)[C@@H](O)[C@H](O)[C@@H]2O)NC1=O)CCOC(=O)[C@H](CCCN(O)C(=O)/C=C(\\C)CCO[C@@H]1O[C@H](CO)[C@@H](O)[C@H](O)[C@@H]1O)[N+](C)(C)[O-]")
"label 1"

Tell me the recorded outcome of this test for C/C(=C\C(=O)NCCC[C@@H]1NC(=O)[C@H](CCCNC(=O)/C=C(\C)CCO)NC1=O)CCO .
label 0
